Every entry's value here was drawn from patent US20070105771A1.

- system_name: human CD26 on the cell surface (human, UniProt P27487 1-766)
- Sequence (P27487 whole entry): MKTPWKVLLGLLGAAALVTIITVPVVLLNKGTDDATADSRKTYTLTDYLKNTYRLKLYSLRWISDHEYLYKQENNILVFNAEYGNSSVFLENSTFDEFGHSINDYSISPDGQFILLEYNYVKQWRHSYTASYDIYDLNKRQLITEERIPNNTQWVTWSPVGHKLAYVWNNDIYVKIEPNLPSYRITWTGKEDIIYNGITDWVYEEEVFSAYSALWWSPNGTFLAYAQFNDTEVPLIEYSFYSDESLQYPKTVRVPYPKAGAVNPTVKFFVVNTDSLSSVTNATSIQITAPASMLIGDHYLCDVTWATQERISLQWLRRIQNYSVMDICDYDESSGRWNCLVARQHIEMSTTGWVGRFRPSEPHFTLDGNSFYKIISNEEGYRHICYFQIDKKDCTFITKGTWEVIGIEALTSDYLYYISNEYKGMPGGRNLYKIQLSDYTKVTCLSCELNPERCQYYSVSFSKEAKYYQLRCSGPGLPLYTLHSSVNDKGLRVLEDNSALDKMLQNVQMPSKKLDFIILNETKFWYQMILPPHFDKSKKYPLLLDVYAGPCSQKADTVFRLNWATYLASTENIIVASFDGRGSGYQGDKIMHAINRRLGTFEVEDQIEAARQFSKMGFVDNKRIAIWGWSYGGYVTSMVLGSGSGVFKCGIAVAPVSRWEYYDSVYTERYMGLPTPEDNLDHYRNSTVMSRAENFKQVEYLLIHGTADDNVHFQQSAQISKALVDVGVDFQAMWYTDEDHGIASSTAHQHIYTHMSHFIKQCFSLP
- procedure_details: cell-based or functional assay
measured_endpoint: percent inhibition, MTT assay, Jurkat CD26+ cells, 0.05 ug/ml (%)

[
  {
    "binder": "rhuMAb 412 (antibody, human IgG1, V domains shown, X385 VH and X380 VL with human IgG1 and human kappa constant regions; also called X412) VH: EVQLVQSGGGVKQPGETLRLTCTASGFSLTTYGVHWVRQAPGKGLEWVGVIWGDGRTDYDAAFMSRVTISKDTSKSTAYLQMNSLRAEDTAVYYCMRNRHDWFDYWGQGTTVTVSS VL: EIEMTQSPSSLSVSAGERATISCSASQDIRNSLNWYQQKPGQAPRLLIYYSSNLHTGVPARFSGSGSGTDFTLTISRLEPEDVAIYYCQQSNKLPLTFGSGTKVEIKR",
    "unit_annotation": "%",
    "reported_measurement": 0.3
  },
  {
    "binder": "rhuMAb 420 (antibody, human IgG1, V domains shown, X420 VH and X380 VL with human IgG1 and human kappa constant regions; also called X420 (IgG1)) VH: EVQLVESGGGVKQPGETLRLTCTASGFSLSTYGVHWVRQAPGKGLEWVGVIWGDGRTDYDAAFMSRVTISKDTSKSTVYLQMNSLRAEDTAVYYCMRNRHDWFDYWGQGTTVTVSS VL: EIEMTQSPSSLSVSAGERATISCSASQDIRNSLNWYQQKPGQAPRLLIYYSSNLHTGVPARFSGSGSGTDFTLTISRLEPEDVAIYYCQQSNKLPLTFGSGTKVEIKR",
    "unit_annotation": "%",
    "reported_measurement": 3.7
  },
  {
    "binder": "rhuMAb 409 (antibody, human IgG1, V domains shown, CM03 VH and VL with human IgG1 heavy chain constant region and human kappa constant region; also called X409) VH: QVKLQESGPGLVQPSQTLSITCTVSGFSLTTYGVHWVRQSPGKGLEWLGVIWGGGRTDYDAAFISRLSISKDNSKSQVFFKMNSLQANDTAIYYCVRNRHDWFDYWGQGTTVTVSS VL: DIQMTQSPSSLSASLGDRVTITCSASQGIRNSLNWYQQKPDGAVKLLIYYSSNLHSGVPSRFSGSGSGTDFSLTISNLEPEDIATYYCQQSIKLPFTFGSGTKLEIKR",
    "unit_annotation": "%",
    "reported_measurement": 4.8
  },
  {
    "binder": "rhuMAb 410 (antibody, human IgG1, V domains shown) VH: EVQLVQSGGGLKQPGETLRLSCTASGYSLTTYGVHWVRQAPGKGLEWMGVIWGDGRTDYDSSFMSRVTISKDTSKSTAYLQLNSLRAEDTAVYYCTRNRHDWFDYWGQGTTVTVSS VL: DILMTQSPSSLSASPGDRVTISCRASQDIRNNLNWYQQKPGQAPRLLIYYSSNLHSGVPDRFSGSGSGTDFTLTISRLEPEDFAAYYCQQSIKLPLTFGSGTKVEIKR",
    "unit_annotation": "%",
    "reported_measurement": 4
  }
]
